# assaySystem: hepatic lipase (HL) (Homo sapiens, UniProt P11150)
# Construct: made in house; host or cells: COS cells (conditioned medium, partially purified)
# Sequence (P11150 23-499, species assumed): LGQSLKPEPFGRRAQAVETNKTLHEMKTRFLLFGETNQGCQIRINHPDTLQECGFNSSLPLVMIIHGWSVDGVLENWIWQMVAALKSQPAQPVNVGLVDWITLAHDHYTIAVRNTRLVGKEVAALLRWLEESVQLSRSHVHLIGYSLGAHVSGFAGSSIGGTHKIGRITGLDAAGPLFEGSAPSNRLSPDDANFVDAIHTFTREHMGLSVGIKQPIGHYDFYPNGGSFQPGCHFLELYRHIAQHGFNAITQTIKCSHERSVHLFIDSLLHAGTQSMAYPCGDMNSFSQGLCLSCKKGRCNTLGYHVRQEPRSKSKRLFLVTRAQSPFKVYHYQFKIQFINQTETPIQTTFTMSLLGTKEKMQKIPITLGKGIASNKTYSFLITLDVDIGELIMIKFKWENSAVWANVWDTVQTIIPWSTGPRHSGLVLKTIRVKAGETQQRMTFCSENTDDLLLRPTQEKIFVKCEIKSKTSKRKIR
# experiment: Hepatic lipase (HL) enzymatic assay, fluorescent substrate A10070 in DMPG vesicles
# Type: biochemical
# setupConditions: HL partially purified from conditioned media of COS cells; compound preincubated 30 min at 37° C; read-out: HL IC50
# strict inequality: IC50 < 100 nM yields true, everything else yields false

Q) For this compound, is IC50 lower than 100 nM? CC(=O)NS(=O)(=O)Cc1nnc(C(c2nc3ccc(-c4ccccc4)cc3s2)S(C)(=O)=O)o1 (stereo not shown)
A) false

Q) Please determine if Cn1cc(-c2ccc3nc(C(c4nnc(CNS(N)(=O)=O)o4)S(=O)(=O)CCC(=O)O)sc3c2)cn1 (stereo not shown) is below 100 nM in terms of IC50.
A) false

Q) Does the reported IC50 of the following compound sit strictly below 100 nM? CC1(Cc2nnc(C(c3nc4ccc(-c5cccc(C(=O)N6CC[C@@H](F)C6)c5)cc4s3)S(C)(=O)=O)o2)NC(=O)NC1=O (stereo partly shown)
A) true

Q) # strict comparison: is reported IC50 < 100 nM? input = CS(=O)(=O)C(c1nnc(CNS(N)(=O)=O)o1)c1nc2ccc(-c3cccc(C(=O)N4CC(F)(F)C4)c3)cc2s1 (stereo not shown) [Example 202]
A) true

Q) Strictly below 100 nM in IC50? CS(=O)(=O)C(c1nnc(CC2SC(=O)NC2=O)o1)c1nc2ccc(C#N)cc2s1 (stereo not shown)
A) false

Q) Bench note: check whether COCCNC(=O)c1cccc(-c2ccc3nc(C(c4nnc(CC5(C)NC(=O)NC5=O)o4)S(C)(=O)=O)sc3c2)c1 (stereo not shown) shows IC50 below 100 nM
A) false

Q) Is the reported IC50 for CC(C)C(O)C(=O)NCc1nnc(C(c2nc3ccc(-c4ccccc4)cc3s2)S(C)(=O)=O)o1 (stereo not shown) strictly below 100 nM?
A) true
